The values you see were collected from patent US20070004660A1.

measuredOn: wild-type FLT3 receptor (Homo sapiens, UniProt P36888)
assayOverview: Cell-based FLT3 receptor ELISA (FLT ligand-induced phosphorylation in Baf3 FLT3 cells)
studyConditions: 100 ng/mL Flt ligand, uncertainty ±20%
Description: Specific cellular inhibition of FLT ligand-induced wild-type FLT3 phosphorylation was measured in the following manner: Baf3 FLT3 cells overexpressing the FLT3 receptor were obtained from Dr. Michael Heinrich (Oregon Health and Sciences University). The Baf3 FLT3 cell lines were created by stable transfection of parental Baf3 cells (a murine B cell lymphoma line dependent on the cytokine IL-3 for growth) with wild-type FLT3. […]
Here the recorded log10(IC50) is given for each entry.
A value of 2 here means IC50 of 100 in nM, since values are log10.

Look over these answered cases.
[[record]]
compound = "CN1CCCN(c2ccc3c(C4CCN(C(=O)Nc5ccc(N6CCOCC6)cc5)CC4)ncnc3c2)CC1 [Example 138]"
observedmeasurement = 2.03

[[record]]
compound = "CC(C)Oc1ccc(NC(=O)N2CCC(c3ncnc4ccc(N5CCN(C)CC5)cc34)CC2)cc1 [Example 131]"
observedmeasurement = 2.35


*Q* # query: log10(IC50) of entry CS(=O)(=O)N1CCN(c2ccc3c(C4CCN(C(=O)Nc5ccc(N6CCOCC6)cc5)CC4)ncnc3c2)CC1 [Example 142]
*A* 0.70

*Q* # query: log10(IC50) of entry O=C(Nc1ccc(N2CCCC2)cc1)N1CCC(c2ncnc3cc(N4CCN(c5ccncc5)CC4)ccc23)CC1 [Compound 194]
*A* 1.04

###

measuredOn: isolated kinase domain of the human FLT3 receptor (a.a. 571-993) (Homo sapiens, UniProt P36888)
Construct: human FLT3 receptor (a.a. 571-993)
assayOverview: FLT3 fluorescence polarization kinase assay
studyConditions: 150 uM ATP; uncertainty ±10%
Here the recorded pIC50 is given for each entry.
// returns pIC50 (minus log10 of molar concentration), number only

[[record]]
compound = "CC(C)Oc1ccc(NC(=O)N2CCC(c3ncnc4ccc(OCCCN5CCN(C)CC5)cc34)CC2)cc1 [Example 76]"
reportedmetric = "pIC50"
observedmeasurement = 6.60

[[record]]
compound = "CS(=O)(=O)NCCCOc1ccc2c(C3CCN(C(=O)Nc4ccc(N5CCOCC5)cc4)CC3)ncnc2c1 [Example 66]"
reportedmetric = "pIC50"
observedmeasurement = 7.74

[[record]]
compound = "O=C(Nc1ccc(N2CCOCC2)cc1)N1CCC(c2ncnc3cc(OCCCO)ccc23)CC1 [Example 77]"
reportedmetric = "pIC50"
observedmeasurement = 6.99


Now look at this entry.
*Q* # query: pIC50 of entry CN(C)C(=O)N1CCN(c2ccc3c(C4CCN(C(=O)Nc5ccc(N6CCCC6)cc5)CC4)ncnc3c2)CC1 [Example 168]
*A* 8.52

###

measuredOn: wild-type FLT3 receptor (Homo sapiens)
Sequence (P36888 27-993): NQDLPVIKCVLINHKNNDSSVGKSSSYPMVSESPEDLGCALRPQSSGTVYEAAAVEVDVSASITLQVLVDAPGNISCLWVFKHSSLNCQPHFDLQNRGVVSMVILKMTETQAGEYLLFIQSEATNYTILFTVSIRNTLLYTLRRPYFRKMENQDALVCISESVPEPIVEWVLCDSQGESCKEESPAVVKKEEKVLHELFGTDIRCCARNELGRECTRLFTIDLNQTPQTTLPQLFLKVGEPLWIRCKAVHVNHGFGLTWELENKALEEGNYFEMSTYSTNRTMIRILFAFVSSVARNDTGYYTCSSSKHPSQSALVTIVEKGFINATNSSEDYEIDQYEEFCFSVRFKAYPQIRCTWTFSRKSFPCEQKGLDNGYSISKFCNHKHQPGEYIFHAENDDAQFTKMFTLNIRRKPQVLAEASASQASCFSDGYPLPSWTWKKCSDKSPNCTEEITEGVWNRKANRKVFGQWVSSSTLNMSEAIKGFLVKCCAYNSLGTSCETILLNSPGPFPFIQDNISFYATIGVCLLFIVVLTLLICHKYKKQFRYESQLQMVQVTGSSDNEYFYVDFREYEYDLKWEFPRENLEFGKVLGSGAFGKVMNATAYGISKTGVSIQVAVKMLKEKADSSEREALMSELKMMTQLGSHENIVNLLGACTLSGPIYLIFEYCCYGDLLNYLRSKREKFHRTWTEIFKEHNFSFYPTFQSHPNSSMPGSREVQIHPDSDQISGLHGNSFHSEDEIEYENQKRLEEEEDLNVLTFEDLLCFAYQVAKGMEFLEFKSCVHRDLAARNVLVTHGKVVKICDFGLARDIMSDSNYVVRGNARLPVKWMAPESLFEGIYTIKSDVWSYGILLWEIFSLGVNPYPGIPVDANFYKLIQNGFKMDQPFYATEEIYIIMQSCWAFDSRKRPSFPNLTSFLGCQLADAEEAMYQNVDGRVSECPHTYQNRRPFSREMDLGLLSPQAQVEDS
assayOverview: Cell-based FLT3 receptor ELISA (FLT ligand-induced phosphorylation in Baf3 FLT3 cells)
studyConditions: 100 ng/mL Flt ligand, uncertainty ±20%
# label = t if IC50 < 10 nM else f

Here are 3 compounds together with their reported answers.
[[record]]
compound = "O=C1CCCN1CCOc1ccc2c(C3CCN(C(=O)Nc4ccc(N5CCCC5)cc4)CC3)ncnc2c1 [Example 74]"
answerlabel = "f"

[[record]]
compound = "COc1cc2ncnc(C3CCN(CC(=O)Nc4ccc(C(C)C)cc4)CC3)c2cc1OC [Example 9]"
answerlabel = "t"

[[record]]
compound = "CC(C)Oc1ccc(NC(=O)N2CCC(c3ncnc4cc(OCCN5CCOCC5)ccc34)CC2)cc1 [Example 37]"
answerlabel = "f"


Turning now to a further record.
*Q* Dear colleague, could you confirm whether IC50 of CN1CCN(CCOc2ccc3c(C4CCN(C(=O)Nc5ccc(N6CCOCC6)cc5)CC4)ncnc3c2)CC1 [Example 156] falls below 10 nM? Thanks.
*A* f
